- experimentalSystem: UniProt P56373
- Sequence (P56373 whole entry): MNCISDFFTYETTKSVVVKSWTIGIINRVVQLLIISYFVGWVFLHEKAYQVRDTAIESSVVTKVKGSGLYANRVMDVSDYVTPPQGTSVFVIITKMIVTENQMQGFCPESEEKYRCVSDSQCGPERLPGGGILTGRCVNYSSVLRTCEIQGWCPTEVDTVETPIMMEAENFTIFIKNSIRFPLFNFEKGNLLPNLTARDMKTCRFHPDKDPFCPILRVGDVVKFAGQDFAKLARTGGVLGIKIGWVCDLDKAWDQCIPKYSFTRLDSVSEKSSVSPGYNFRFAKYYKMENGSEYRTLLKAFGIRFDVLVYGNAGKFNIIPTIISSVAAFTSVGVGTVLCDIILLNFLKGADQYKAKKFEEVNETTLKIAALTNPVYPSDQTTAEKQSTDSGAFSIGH
- experimentalDetails: Evaluation of human P2X3 receptor inhibitory activity (Fluo-3 calcium fluorescence, FDSS 3000, ATP stimulation);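 further: stimulus was 50 nM ATP with fluorescence followed for 3 min, and the response per well was peak post-ATP fluorescence divided by the reading at measurement start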
- Format: cell-based
- measurementParameters: C6BU-1 cells stably expressing human P2X3 receptor, Fluo-3 fluorescence, FDSS 3000
I'd appreciate it if you could supply pIC50 values for the items below.
Numbers only, as −log10 of the molar value.

Examples with answers:
smilesStructure | experimentalSystem | reported
Cc1oc2ccc(/N=c3\[nH]c(=O)n(C[C@H](C)C(=O)O)c(=O)n3Cc3ccc(Cl)cc3)cc2c1C | UniProt P56373 | 7.85
Cc1ccc(Cn2c(=O)n(C[C@H](C)C(=O)O)c(=O)[nH]/c2=N\c2ccc(OC(F)F)c(Cl)c2)cc1 | UniProt P56373 | 7.48

Please give pIC50, item by item, for the list that follows.
1. C/C=C/c1ccc(Cn2c(=O)n(C[C@H](C)C(=O)O)c(=O)[nH]/c2=N\c2ccc(OC(C)C)cc2)cc1
2. C[C@@H](C(=O)O)[C@H](C)n1c(=O)[nH]/c(=N\c2ccc3c(c2)CCCC3)n(Cc2ccc(Cl)cc2)c1=O

Response line:
6.01
6.23

Source of measurements: patent US9718790B2
